What normalized growth was measured for each of the following?
Experiment: chemical genetic growth profiling, strain panel (AID 1159580);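 further: tested at 20 µM; growth read once vehicle control cultures reached saturation at 30 °C; 1 = growth at the plate median or of vehicle wells; lower values mean less growth of the strain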
Details: S. cerevisiae deletion strains, growth OD, locus YGL227W, strain vid30, stronger effect = lower value
Screen size: about 5,500 compounds; about 2,000 (36%) were called active. Roughly 18% stayed inconclusive and do not appear here. Some of the results follow.
API doc: respond with a numeric literal and nothing else, no unit.

Dear colleague, I am looking for the recorded normalized growth of the following compound: NC(Cc1ccc(F)cc1)C(=O)O (centres undefined) 1.02

Quick one: CC(CCC(=O)O)[C@H]1CCC2C3CC[C@@H]4CCCC[C@]4(C)C3CC[C@@]21C (some centres undefined) 1.02

Again, but for CC(CCC(=O)O)[C@H]1CCC2C3C[C@H](O)[C@@H]4C[C@H](O)CC[C@]4(C)C3CC[C@@]21C (some centres undefined) 0.994

One more compound: `Cc1cc(O)c(C=O)c2c1C(=O)Oc1c(COC(=O)/C=C/C(=O)O)c(O)c(C(=O)O)c(C)c1O2` 1.02

Also need COC(=O)CCC(C)C1CCC2C3CC[C@@H]4C[C@H](O)CC[C@]4(C)C3C[C@H](O)[C@]12C (some centres undefined) , thanks. 1

What do you get for COC(=O)CCC(C)[C@H]1CCC2C3C(C[C@H](O)[C@@]21C)[C@@]1(C)CC[C@@H](O)C[C@H]1C[C@H]3O (some centres undefined) ? 1.02

Would you mind doing `N[C@H](Cc1ccccc1)C(=O)O` as well? 0.98

Now give it for CC[C@H](CCC(C)[C@H]1CCC2C3CCC4C[C@@H](O)CC[C@]4(C)C3CC[C@@]21C)C(C)C (some centres undefined) too. 0.992

Another compound to check: `N[C@H](Cc1cc(I)c(Oc2ccc(O)c(I)c2)c(I)c1)C(=O)O` 0.993

---

Field: normalized growth. Provide a value for each of the molecules that follow.
Test: chemical genetic growth profiling, strain panel (AID 1159580)
Conditions: S. cerevisiae deletion strains, growth OD, locus YPL078C, strain atp4, stronger effect = lower value
Hit rate of the full screen: of about 5,500 compounds, about 2,000 (36%) were called active. Roughly 18% stayed inconclusive and do not appear here. The list shows a part of the results.
Field format: numeric only.

Which normalized growth is listed for C=C1C(C2(C)C=CC(=O)C(C)(C)C2CC(=O)OC)CC[C@@]2(C)[C@H](c3ccoc3)OC(=O)C3OC132 (some centres undefined) ? 1.05

And the next one, `COc1c(Cl)ccc(Cl)c1C(=O)O` ? 0.982

Input `CCOC(=O)[C@H](CCc1ccccc1)N[C@@H](C)C(=O)N1Cc2ccccc2C[C@H]1C(=O)O` 0.98

Quick one: C[C@H](CCC(=O)O)[C@H]1CCC2C3C(CC[C@@]21C)[C@@]1(C)CC[C@@H](O)C[C@H]1C[C@H]3O (some centres undefined) 0.982

// repeat for `N[C@H](Cc1ccccc1)C(=O)O` and report 1.03

Now consider `COc1ccc(C(=O)CC(=O)c2ccc(C(C)(C)C)cc2)cc1` and answer again. 0.998

And the next one, C=C1C2CC[C@@]3(C)[C@H](c4ccoc4)OC(=O)C[C@]13O[C@H]1CC(O)C(C)(C)C(CC(=O)OC)[C@@]21C (some centres undefined) ? 0.981

Queued: NC(=O)c1ncn(C2O[C@H](CO)[C@@H](O)[C@H]2O)c1N (some centres undefined) 1.03

Now try `C=C1[C@H]2CC[C@@]3(C)[C@H](c4ccoc4)OC(=O)C[C@]13O[C@H]1C[C@H](O)C(C)(C)[C@H](CC(=O)OC)[C@]12C` . 0.985

---

What normalized growth was measured for each of the following?
Assay: chemical genetic growth profiling, strain panel (AID 1159580);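 further: tested at 20 µM; growth read once vehicle control cultures reached saturation at 30 °C; 1 = growth at the plate median or of vehicle wells; lower values mean less growth of the strain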
Settings: S. cerevisiae deletion strains, growth OD, locus YPL051W, strain arl3, stronger effect = lower value
Hit rate of the full screen: of about 5,500 compounds, about 2,000 (36%) were called active. Inconclusive results (about 18%) are left out. This is one part of the list.
Just the number.

normalized growth for C=C1C2CCC3(C)C(c4ccoc4)OC(=O)CC13OC1CC(OC(C)=O)C(C)(C)C(CC(=O)OC)C12C (stereo not drawn) ? 1.01

What do we get for C=C1C2CC[C@@]3(C)[C@H](c4ccoc4)OC(=O)C[C@]13O[C@H]1CC(O)C(C)(C)C(CC(=O)OC)[C@@]21C (stereo partly drawn) ? 0.975

How about this compound: `O=C(O)CCC(=O)Nc1ccc(S(=O)(=O)Nc2nccs2)cc1` 0.995

// next record CN(CCC(N)CC(=O)N[C@H]1C=CC(n2ccc(N)nc2=O)O[C@@H]1C(=O)O)C(=N)N (stereo partly drawn) 0.869

And then C=C1C2=CC(=O)O[C@@H](c3ccoc3)[C@]2(C)CCC1[C@@]1(C)C=CC(=O)C(C)(C)[C@@H]1CC(=O)OC (stereo partly drawn) , what is it? 0.985

Follow-up entry: NC(=O)c1ncn(C2O[C@H](CO)[C@@H](O)[C@H]2O)c1N (stereo partly drawn) 1.01

Next compound: `O=C(O)c1ccccc1C(=O)Nc1ccc(S(=O)(=O)Nc2nccs2)cc1` 1

Ok, now `C=C1[C@H]2CC[C@@]3(C)[C@H](c4ccoc4)OC(=O)C[C@]13O[C@H]1C[C@H](O)C(C)(C)[C@H](CC(=O)OC)[C@]12C` 1.02

---

Assay: chemical genetic growth profiling, strain panel (AID 1159580);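 further: tested at 20 µM; growth read once vehicle control cultures reached saturation at 30 °C; 1 = growth at the plate median or of vehicle wells; lower values mean less growth of the strain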
Details: S. cerevisiae deletion strains, growth OD, locus YCL029C, strain bik1, stronger effect = lower value
The campaign covered roughly 5,500 compounds. About 2,000 (36%) were called active. Not shown: some 18% with an inconclusive outcome. The list shows a part of the results.
Record form. Attribute: normalized growth. Fill in for each entry.
Answer with a bare number; do not write a unit.

What normalized growth value was documented for this compound, CC(CN(C)C)CN1c2ccccc2Sc2ccccc21 (configuration not stated) ? 0.989

Also check `CC(=O)Nc1ccccc1` 0.983

And for CC(CN1c2ccccc2Sc2cccnc21)N(C)C (configuration not stated) ? 0.988

Record: CC(CN(C)C)CN1c2ccccc2CCc2ccccc21 (configuration not stated) 1.02

How about this compound: CC1(C)C(O)CC(O)C2(C)C1CC(O)C1(C)C2CCC2(C)C(c3ccoc3)OC(=O)C3OC321 (configuration not stated) 1.01

Would you mind doing CC1(C)C(=O)C=C[C@@]2(C)C1CC(=O)[C@@]1(C)C3=CC(=O)O[C@@H](c4ccoc4)[C@]3(C)CCC12 (some centres not stated) as well? 0.994

Repeat with CCC(=O)c1ccc2c(c1)N(CC(C)N(C)C)c1ccccc1S2 (configuration not stated) 1.02

// repeat for `COc1cc2c(cc1-c1cc3cc4ccoc4cc3oc1=O)OCO2` and report 0.965

Now consider `CO[C@]12C[C@@H](COC(=O)c3cncc(Br)c3)CN(C)[C@@H]1Cc1cn(C)c3cccc2c13` and answer again. 1.02

What would you report for `CN(C)N=Nc1nc[nH]c1C(N)=O` ? 1

Cool, now `COc1c(Cl)ccc(Cl)c1C(=O)O` 1.02

Lookup NCC(CC(=O)O)c1ccc(Cl)cc1 (configuration not stated) 0.993

And `S=P(N1CC1)(N1CC1)N1CC1` ? 1.01

Let us now turn to `Nc1cc(-c2ccncc2)c[nH]c1=O` 0.988

Cool, now `COC(=O)c1c(C)cc(OC(=O)c2c(C)cc(O)c(C=O)c2O)c(C)c1O` 0.994

Proceed to `O=C(O)CCCOc1ccc(Cl)cc1Cl` 1

And `COC(=O)CCCOc1ccc(Cl)cc1Cl` ? 1

Repeat with `CNCCCN1c2ccccc2CCc2ccccc21` 1

Try this compound too: `O=C(Nc1ccccc1)Nc1ccccc1` 1.02

Next: CC(=O)OCC(=O)[C@@]1(O)[C@H](OC(C)=O)CC2C3CCC4=CC(=O)C=C[C@]4(C)[C@@]3(F)[C@@H](O)C[C@@]21C (some centres not stated) 0.99

Entry `CC12CC3CC(C)(C1)CC(N)(C3)C2` please 1.02

Also `COC(=O)c1c(C)cc(OC(=O)c2c(C)c(Cl)c(O)c(C=O)c2O)c(C)c1O` ? 0.985

What about this compound? `O=c1[nH]cnc2[nH]ncc12` 1.02

What do you get for `Cc1cccc(Nc2ccncc2S(=O)(=O)NC(=O)NC(C)C)c1` ? 1.02

Same read-out for `COc1cc2c(cc1/C=C/C(=O)c1cc(OC)c(OC)cc1OC)OCO2` ? 1.02

One more compound: CCCCCC1C(=O)CCC1CC(=O)O (configuration not stated) 0.998

Now give it for CSc1ccc2c(c1)N(CCC1CCCCN1C)c1ccccc1S2 (configuration not stated) too. 0.169

---

Exercise: for every item that follows, state its recorded normalized growth.
Assay: chemical genetic growth profiling, strain panel (AID 1159580);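 further: tested at 20 µM; growth read once vehicle control cultures reached saturation at 30 °C; 1 = growth at the plate median or of vehicle wells; lower values mean less growth of the strain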
Conditions: S. cerevisiae strains, growth OD, strain wild type, stronger effect = lower value
The campaign covered roughly 5,500 compounds. About 2,000 (36%) were called active. Roughly 18% stayed inconclusive and do not appear here. Some of the results follow.
Kindly provide the number alone.

Quick one: normalized growth of C=C1C2CC[C@@]3(C)[C@H](c4ccoc4)OC(=O)C[C@]13O[C@H]1CC(O)C(C)(C)C(CC(=O)OC)[C@@]21C (stereo not given in full) ? 0.998

Next molecule up: `CCCCSP(=O)(SCCCC)SCCCC` 1.02

Same question, C=C1C2CCC3(C)C(c4ccoc4)OC(=O)CC13OC1CC(OC(C)=O)C(C)(C)C(CC(=O)OC)C12C (stereo not given) this time 1.01

Try this molecule next: `C=C1[C@H]2CC[C@@]3(C)[C@H](c4ccoc4)OC(=O)C[C@]13O[C@H]1C[C@H](O)C(C)(C)[C@H](CC(=O)OC)[C@]12C` 1.01

Lookup NS(=O)(=O)c1cc2c(cc1Cl)NC(C1CC3C=CC1C3)NS2(=O)=O (stereo not given) 0.998
